# target or test system: Inositol monophosphatase 1 (Rattus norvegicus) (UniProt P97697)
# Sequence (P97697 whole entry, looked up): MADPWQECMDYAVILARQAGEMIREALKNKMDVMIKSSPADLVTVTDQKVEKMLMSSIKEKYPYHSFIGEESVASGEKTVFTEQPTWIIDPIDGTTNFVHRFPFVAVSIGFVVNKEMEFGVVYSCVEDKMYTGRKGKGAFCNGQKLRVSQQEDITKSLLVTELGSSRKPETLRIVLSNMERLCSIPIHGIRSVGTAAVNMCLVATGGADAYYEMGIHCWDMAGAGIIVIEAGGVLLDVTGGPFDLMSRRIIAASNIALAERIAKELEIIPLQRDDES
# assay overview: qHTS Assay for Identifying the Cell-Membrane Permeable IMPase Inhibitors;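 note: higher means more IMPase inhibition seen as more IP1 and lower FRET ratio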
# particulars: CHO-M1 cells, HTRF TR-FRET ratio; series mostly up to 46.1 µM
The campaign covered roughly 120,000 compounds. Fewer than 10 were called active. Not shown: some 4% with an inconclusive outcome. Only a sample is shown.
recorded metric: outcome

molecule=CCOc1cc(NC(=S)NCCCOC)c(OCC)cc1NC(=O)c1ccco1 data_value=inactive
molecule="Cc1c(Cl)c([N+](=O)[O-])nn1CCCC(=O)NC(C)c1ccccc1 (stereo not given)" data_value=inactive
molecule=CCNS(=O)(=O)c1ccc(NC(=O)CSc2nc(-c3ccco3)cc(C(F)(F)F)n2)cc1 data_value=inactive
molecule=COc1ccc(S(=O)(=O)Nc2cc3c(C(=O)OC(C)C)c(C)oc3c3ccccc23)cc1 data_value=inactive
molecule=Cc1ccc(NC2=C(c3ccc(C(F)(F)F)cc3)C(=O)c3ccccc32)cc1F data_value=inactive
molecule=N#C/C(=C\c1cccc(F)c1)c1nc(-c2cc3c(ccc4ccccc43)oc2=O)cs1 data_value=inactive
molecule=Cc1nnc(SCC(=O)N2CCOCC2)[nH]c1=O data_value=inactive
molecule=CCOc1ccc(S(=O)(=O)N/N=C(\C)c2ccc(Cl)c(Cl)c2Cl)cc1 data_value=inactive
molecule=Cn1c(=O)c2c(nc(NCCc3ccccc3)n2Cc2ccccc2Br)n(C)c1=O data_value=inactive
molecule=COc1ccc2oc(-c3cccc(NC(=O)CSc4ccc(Cl)cc4)c3)nc2c1 data_value=inactive

---

# target or test system: Inositol monophosphatase 1 (Rattus norvegicus) (UniProt P97697)
# assay overview: qHTS Assay for Identifying the Cell-Membrane Permeable IMPase Inhibitors;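 note: higher means more IMPase inhibition seen as more IP1 and lower FRET ratio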
# particulars: CHO-M1 cells, HTRF TR-FRET ratio; series mostly up to 46.1 µM
The whole screen tested about 120,000 compounds, of which fewer than 10 were called active. Roughly 4% stayed inconclusive and do not appear here. The list is a sample of the results.
recorded metric: outcome

compound=CCOC(=O)c1c(C)oc2ccc(N(C(=O)c3ccncc3)S(=O)(=O)c3ccc(CC)cc3)cc12 recorded_metric=outcome data_value=inactive
compound=CCc1cccc(C)c1Nc1c(-c2ccc(N(C)C)cc2)nc2ncccn12 recorded_metric=outcome data_value=inactive
compound=COc1ccc(-c2csc3ncnc(Oc4ccc5c(C)cc(=O)oc5c4)c23)cc1 recorded_metric=outcome data_value=inactive
compound="CC(C)c1ccc(OCC(=O)N(Cc2ccc(N(C)C)cc2)C2CCS(=O)(=O)C2)cc1 (configuration not stated)" recorded_metric=outcome data_value=inactive
compound=COc1ccc(/C=C/C(=O)OCC(=O)NCc2cccs2)cc1OC recorded_metric=outcome data_value=inactive
compound=Cc1cc(C)cc(OCC(=O)Nc2c(C(=O)c3ccccc3)oc3ccccc23)c1 recorded_metric=outcome data_value=inactive
compound=CCN(c1ccc(NC(=O)COC(=O)CCc2nc3ccccc3n2-c2ccccc2)cc1)C(C)C recorded_metric=outcome data_value=inactive
compound=O=C(COC(=O)c1cc([N+](=O)[O-])ccc1NCc1ccccc1)NC1CCCCC1 recorded_metric=outcome data_value=inactive
compound=COc1ccc(NC(=O)Cn2c(=O)n(Cc3ccc(C(=O)NCc4ccccc4Cl)cc3)c(=O)c3ccccc32)cc1 recorded_metric=outcome data_value=inactive
compound=CC(=O)N1CCN(CC(=O)Nc2ccc(SC(F)F)cc2)CC1 recorded_metric=outcome data_value=inactive
compound=NC(=S)N/N=C/c1coc2cc(Cl)ccc2c1=O recorded_metric=outcome data_value=inactive
compound=COc1cccc(C(=O)Nc2ccc3oc(-c4ccc5ccccc5c4)nc3c2)c1 recorded_metric=outcome data_value=inactive
compound=Cn1c(=O)c2c(nc(SCC(=O)Nc3ccc(F)cc3)n2Cc2ccc(Cl)cc2)n(C)c1=O recorded_metric=outcome data_value=inactive
compound="CCCn1c(=N)n(CC(O)COc2ccccc2OC)c2ccccc21 (configuration not stated)" recorded_metric=outcome data_value=inactive
compound=CN(C)c1ccc(/C=N/N(Cc2ccccc2)c2ccccc2)cc1 recorded_metric=outcome data_value=inactive
compound=O=C(COC(=O)CSc1nnc(-c2ccc(Cl)cc2)o1)Nc1cc(Cl)cc(Cl)c1 recorded_metric=outcome data_value=inactive
compound=COc1ccccc1CN(C)C(=O)C1(c2ccc(Cl)cc2)CC1 recorded_metric=outcome data_value=inactive
compound=CCc1nc2nc(C)cc(Nc3ccc(F)c(Cl)c3)n2n1 recorded_metric=outcome data_value=inactive
compound="Cc1ccc(CN2C(=O)SC(Nc3ccccc3)C2=O)cc1 (configuration not stated)" recorded_metric=outcome data_value=inactive
compound=Cc1ccc(-c2cc(C(F)(F)F)c(C#N)c(SCC(=O)Nc3ccccc3)n2)cc1 recorded_metric=outcome data_value=inactive
compound="CC1=C(C(=O)OCc2ccc(C)cc2)C(c2c(Cl)cccc2Cl)CC(=O)N1 (configuration not stated)" recorded_metric=outcome data_value=inactive
compound=COc1ccc(C2(Nc3cccc(F)c3)C(=O)c3ccccc3C2=O)cc1 recorded_metric=outcome data_value=inactive
compound=Cc1ccc(C(=O)Nc2nc(-c3ccccc3)ns2)cc1 recorded_metric=outcome data_value=inactive
compound=COc1ccc(C(=O)COC(=O)CCCC(=O)Nc2cc(C(F)(F)F)ccc2Cl)cc1 recorded_metric=outcome data_value=inactive
compound="CCOc1ccc(C2CC(=O)c3c([nH]c(C(=O)OCc4ccccc4)c3C)C2)cc1 (configuration not stated)" recorded_metric=outcome data_value=inactive
compound=CCCC(=O)Nc1cc2nn(-c3ccccc3)nc2cc1C recorded_metric=outcome data_value=inactive
compound=CC(C)c1ccc(S(=O)(=O)Nc2ccc(O)c(Sc3nc4ccccc4s3)c2)cc1 recorded_metric=outcome data_value=inactive
compound=CCOC(=O)c1c(C)n(S(=O)(=O)c2ccc(C)cc2C)c2ccc(NS(=O)(=O)c3ccc(C)cc3C)cc12 recorded_metric=outcome data_value=inactive
compound="Cc1ccc(-c2nnc(Nc3ccc(OCC(N)=O)cc3)c3ccccc23)cc1S(=O)(=O)NCC1CCCO1 (configuration not stated)" recorded_metric=outcome data_value=inactive
compound=CCOC(=O)c1cnc2c(C)cc(Cl)cc2c1NCCc1ccc(OC)c(OC)c1 recorded_metric=outcome data_value=inactive
compound="Cc1cc(NC(=O)C2CCC(CNS(=O)(=O)c3ccc(Br)s3)CC2)ccc1Br (configuration not stated)" recorded_metric=outcome data_value=inactive
compound="COC(=O)c1c(NC(=O)CN2C(=O)NC(CCc3ccccc3)C2=O)sc2c1CCCCC2 (configuration not stated)" recorded_metric=outcome data_value=inactive
compound=Cc1ccc(C(=O)CSc2nc(-c3ccccc3)nc3c2CCCC3)c(C)c1 recorded_metric=outcome data_value=inactive
compound=FC(F)(F)c1cc(Nc2nc3ccccc3c3nncn23)ccc1Cl recorded_metric=outcome data_value=inactive
compound=COc1ccccc1OCCCn1c(-c2ccc(Cl)cc2)nc2ccccc2c1=O recorded_metric=outcome data_value=inactive
compound="COC(=O)c1c(NC(=O)C(C)Oc2ccc(Cl)c(C)c2)sc(C)c1C (configuration not stated)" recorded_metric=outcome data_value=inactive
compound=CCCCSc1ncnc2c1sc1nc(N3CCOCC3)c3c(c12)CCCC3 recorded_metric=outcome data_value=inactive
compound=Cc1ccccc1-c1nc2cc(NC(=O)c3cccc(OCCC(C)C)c3)ccc2o1 recorded_metric=outcome data_value=inactive
compound=CCCCCNC(=O)c1cccnc1SCC(=O)Nc1ccccc1OC recorded_metric=outcome data_value=inactive
compound="CC1=C(C(=O)OCC2CCCCC2)C(c2c(F)cccc2Cl)CC(=O)N1 (configuration not stated)" recorded_metric=outcome data_value=inactive
compound="CCOC(=O)CC(NC(=O)C1c2ccccc2Oc2ccccc21)c1ccc(C)cc1 (configuration not stated)" recorded_metric=outcome data_value=inactive
compound=O=C(Cc1ccc(Cl)cc1)Nc1ccc2nn(-c3ccc(Cl)cc3)nc2c1 recorded_metric=outcome data_value=inactive

---

# target or test system: Inositol monophosphatase 1 (Rattus norvegicus)
# assay overview: qHTS Assay for Identifying the Cell-Membrane Permeable IMPase Inhibitors;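 note: higher means more IMPase inhibition seen as more IP1 and lower FRET ratio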
# particulars: CHO-M1 cells, HTRF TR-FRET ratio; series mostly up to 46.1 µM
The campaign covered roughly 120,000 compounds. Fewer than 10 were called active. Another 4% or so got no clear call; they are omitted. The list is a sample of the results.
recorded metric: outcome

compound=COc1ccc(-c2cc(C(F)(F)F)nc(SCC(=O)N(C)Cc3ccccc3)n2)cc1OC data_value=inactive
compound="Cc1ccc(CSCC(N)C(=O)O)cc1 (stereo not drawn)" data_value=inactive
compound=CC(C)Cn1c(-c2ccc(S(=O)(=O)N3CCOCC3)cc2)csc1=Nc1cc(Cl)ccc1Cl data_value=inactive

---

# target or test system: Inositol monophosphatase 1 (Rattus norvegicus) (UniProt P97697)
# assay overview: qHTS Assay for Identifying the Cell-Membrane Permeable IMPase Inhibitors;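 note: higher means more IMPase inhibition seen as more IP1 and lower FRET ratio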
# particulars: CHO-M1 cells, HTRF TR-FRET ratio; series mostly up to 46.1 µM
# Description: NCGC IMPase Assay Overview Lithium has been widely used for the treatment of bipolar disorder. But lithium has a narrow therapeutic index and it can cause side effects such as thirst, weight gain, tremor, polyuria and memory problems. […] To identify new cell-permeable IMPase inhibitors, we developed a cell-based IMPase assay in which the cytosolic IP1 is measured by a time-resolved fluorescence resonance energy transfer (TR-FRET) assay. […]
In all, about 120,000 compounds went through this assay and fewer than 10 were called active. Another 4% or so got no clear call; they are omitted. The list is a sample of the results.
recorded metric: outcome

molecule=COc1ccc(-c2noc(CCC(=O)N(C)c3ccccc3C)n2)cc1 target_or_test_system="Inositol monophosphatase 1 (Rattus norvegicus) (UniProt P97697)" data_value=inactive
molecule=COCCNC(=O)c1ccc2c(c1)N=C(C)c1cc(C)ccc1S2 target_or_test_system="Inositol monophosphatase 1 (Rattus norvegicus) (UniProt P97697)" data_value=inactive
molecule=COc1ccc(Cl)cc1NC(=O)NCC1CCN(Cc2ccccc2F)CC1 target_or_test_system="Inositol monophosphatase 1 (Rattus norvegicus) (UniProt P97697)" data_value=inactive
molecule=CCN(C(=O)COC(=O)c1cc(NS(=O)(=O)c2ccc(Cl)c([N+](=O)[O-])c2)ccc1O)C1CCCCC1 target_or_test_system="Inositol monophosphatase 1 (Rattus norvegicus) (UniProt P97697)" data_value=inactive
molecule="Cc1ccc(C)c(N2CCN(C(=O)C3CCC(CNS(=O)(=O)c4cccs4)CC3)CC2)c1 (stereo not given)" target_or_test_system="Inositol monophosphatase 1 (Rattus norvegicus) (UniProt P97697)" data_value=inactive
